Every entry's value here was drawn from patent US9693997B2.

Tested on: Pseudotyped HCV GT1b particles (HCVpp), entry into Huh7-high CD81 cells
measurementDescription: microbe, parasite or virus in culture
Type: cell-based, HCV GT1b Con1 strain
setupConditions: Hepatitis C virus, GT1B, 72 h, read-out: HCVpp GT-1b (EC50, μM)
observedProperty: EC50 (µM)

{"columns": ["compound", "experimentalSystem", "numericValue"],
 "data": [
  ["CC(C)(C)OC(=O)N1CCC[C@@H]1COc1ccc(-c2c(Cl)cc(Nc3n[nH]c(N)n3)cc2Cl)cc1 [Compound 275]", "Pseudotyped HCV GT1b particles (HCVpp), entry into Huh7-high CD81 cells", 0.285],
  ["CC(C)(C)OC(=O)COc1ccc(-c2c(Cl)cc(Nc3n[nH]c(N)n3)cc2Cl)cc1 [Compound 276]", "Pseudotyped HCV GT1b particles (HCVpp), entry into Huh7-high CD81 cells", 0.168],
  ["CC(C)(C)OC(=O)N1CC[C@H](Oc2ccc(-c3c(Cl)cc(Nc4n[nH]c(N)n4)cc3Cl)cc2)C1 [Compound 273]", "Pseudotyped HCV GT1b particles (HCVpp), entry into Huh7-high CD81 cells", 0.28],
  ["CC(C)(C)N1Cc2ccc(-c3c(Cl)cc(Nc4n[nH]c(N)n4)cc3C(F)(F)F)cc2S1(=O)=O [Compound 10]", "Pseudotyped HCV GT1b particles (HCVpp), entry into Huh7-high CD81 cells", 0.015],
  ["CS(=O)(=O)c1ccc(-c2c(Cl)cc(Nc3n[nH]c(N)n3)cc2Cl)cc1C(F)(F)F [Compound 14]", "Pseudotyped HCV GT1b particles (HCVpp), entry into Huh7-high CD81 cells", 0.052],
  ["Nc1nc(Nc2cc(Cl)c(-c3ccc(S(=O)(=O)NCCO)cc3)c(C(F)(F)F)c2)n[nH]1 [Compound 161]", "Pseudotyped HCV GT1b particles (HCVpp), entry into Huh7-high CD81 cells", 0.058],
  ["Nc1n[nH]c(Nc2cc(F)c(-c3ccc4ccccc4c3)c(C(F)(F)F)c2)n1 [Compound 249]", "Pseudotyped HCV GT1b particles (HCVpp), entry into Huh7-high CD81 cells", 0.991],
  ["CN(C)S(=O)(=O)c1cccc(-c2c(F)cc(Nc3nc(N)n[nH]3)cc2C(F)(F)F)c1 [Compound 84]", "Pseudotyped HCV GT1b particles (HCVpp), entry into Huh7-high CD81 cells", 0.43],
  ["COc1ccc(-c2c(Cl)cc(Nc3n[nH]c(N)n3)cc2C(F)(F)F)cc1S(=O)(=O)N[C@H]1CC[C@H](O)CC1 [Compound 190]", "Pseudotyped HCV GT1b particles (HCVpp), entry into Huh7-high CD81 cells", 0.046],
  ["CN(CCOc1ccc(-c2c(Cl)cc(Nc3n[nH]c(N)n3)cc2Cl)cc1)C(=O)OC(C)(C)C [Compound 261]", "Pseudotyped HCV GT1b particles (HCVpp), entry into Huh7-high CD81 cells", 0.033],
  ["CS(=O)(=O)c1ccc(-c2ccc(Nc3n[nH]c(N)n3)cc2S(F)(F)(F)(F)F)cc1 [Compound 288]", "Pseudotyped HCV GT1b particles (HCVpp), entry into Huh7-high CD81 cells", 1.23],
  ["CS(=O)(=O)n1ccc2c(-c3c(Cl)cc(Nc4n[nH]c(N)n4)cc3Cl)cccc21 [Compound 15]", "Pseudotyped HCV GT1b particles (HCVpp), entry into Huh7-high CD81 cells", 0.05],
  ["CC(C)(C)OC(=O)N1CCCC(Oc2ccc(-c3c(Cl)cc(Nc4n[nH]c(N)n4)cc3C(F)(F)F)cc2)C1 (stereo not drawn) [Compound 129]", "Pseudotyped HCV GT1b particles (HCVpp), entry into Huh7-high CD81 cells", 0.017],
  ["COc1ccc(-c2c(Cl)cc(Nc3n[nH]c(N)n3)cc2C(F)(F)F)cc1S(=O)(=O)NC1CCN(C(C)=O)CC1 [Compound 227]", "Pseudotyped HCV GT1b particles (HCVpp), entry into Huh7-high CD81 cells", 0.042],
  ["N#CCCCOc1ccc(-c2c(Cl)cc(Nc3n[nH]c(N)n3)cc2Cl)cc1 [Compound 26]", "Pseudotyped HCV GT1b particles (HCVpp), entry into Huh7-high CD81 cells", 0.116]
]}
